// reported self-splicing fitness (ln) per item
# protocol description: self-splicing fitness, log relative to wild type (ln ratio); higher = more splicing; Tetrahymena group I intron in knt gene, E. coli kanamycin selection, DiMSum; sequences stand for … in CUCUCU…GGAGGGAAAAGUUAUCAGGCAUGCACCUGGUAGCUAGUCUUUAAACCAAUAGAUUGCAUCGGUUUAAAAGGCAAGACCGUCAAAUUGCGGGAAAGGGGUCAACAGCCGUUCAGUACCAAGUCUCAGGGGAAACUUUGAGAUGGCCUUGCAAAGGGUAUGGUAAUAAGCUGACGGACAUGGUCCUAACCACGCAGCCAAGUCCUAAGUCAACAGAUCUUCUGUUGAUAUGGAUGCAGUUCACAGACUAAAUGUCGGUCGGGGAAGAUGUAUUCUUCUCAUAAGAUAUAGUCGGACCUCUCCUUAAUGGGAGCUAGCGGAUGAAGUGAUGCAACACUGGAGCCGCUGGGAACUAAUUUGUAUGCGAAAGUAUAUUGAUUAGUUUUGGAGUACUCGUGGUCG;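 also: selection with 25 µg/mL kanamycin versus none on LB agar overnight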
# condition summary: 30 °C
measured property: self-splicing fitness (ln)

1. UGCAAGCAAUAUUACGUUAG
-2.79
2. GACGAGCAAUAUUACGUCUC
-3.48
3. GUGAAGCAAUAUUACGAUCG
-0.499
4. CCAGAGCAAUAUUACGCCGA
-2.35
5. AUAAAGCAAUAUUACGCUGU
-0.921
6. UCGUAGCAAUAUUACGGUGC
-3.62
7. GCAAAGCAAUAUUACGCGGA
-3.48
8. GCUUAGCAAUAUUACGCCGC
-3.07
9. GAGAAGCAAUAUUACGAGCA
-1.79
10. GUAAAGCAAUAUUACGCCCC
-0.801
11. GUUUAGCAAUAUUACGACGA
-0.271
12. ACCGAGCAAUAUUACGCUUC
-2.06
13. GAGAAGCAAUAUUACGAAAA
-3.53
14. GCCCAGCAAUAUUACGCGCU
-3.29
15. UAUGAGCAAUAUUACGGGGA
-2.94
16. CACAAGCAAUAUUACGUAUC
-4.88

====

# protocol description: self-splicing fitness, log relative to wild type (ln ratio); higher = more splicing; Tetrahymena group I intron in knt gene, E. coli kanamycin selection, DiMSum; sequences stand for … in CUCUCU…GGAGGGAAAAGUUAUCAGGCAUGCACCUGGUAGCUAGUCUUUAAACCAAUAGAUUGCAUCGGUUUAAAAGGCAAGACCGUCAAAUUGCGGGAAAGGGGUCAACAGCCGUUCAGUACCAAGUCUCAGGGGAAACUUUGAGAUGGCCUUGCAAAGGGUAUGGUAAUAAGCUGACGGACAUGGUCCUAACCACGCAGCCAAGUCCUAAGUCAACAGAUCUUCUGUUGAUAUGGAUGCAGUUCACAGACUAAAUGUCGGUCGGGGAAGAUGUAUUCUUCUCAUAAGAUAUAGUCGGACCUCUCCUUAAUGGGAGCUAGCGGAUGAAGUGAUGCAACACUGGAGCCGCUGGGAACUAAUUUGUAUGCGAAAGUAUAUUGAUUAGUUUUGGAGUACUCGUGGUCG
# condition summary: 37 °C
measured property: self-splicing fitness (ln)

1) CGGAAGCAAUAUUACGGUAG
-0.214
2) GACAAGCAAUAUUACGUGUC
-3.22
3) AACGAGCAAUAUUACGAUAC
-1.97
4) CUAGAGCAAUAUUACGUAGC
-1.49
5) GGUAAGCAAUAUUACGCAAG
-2.03
6) CCCGAGCAAUAUUACGUGAG
-2.77
7) AUUAAGCAAUAUUACGACUC
-0.203
8) CAUCAGCAAUAUUACGAUCC
-0.817
9) UUCGAGCAAUAUUACGGCCA
-0.028
10) UGGGAGCAAUAUUACGGGCA
-0.757
11) AAGUAGCAAUAUUACGCUGU
-1.87
12) CCCAAGCAAUAUUACGUUGA
-3.04
13) GCGGAGCAAUAUUACGCAUG
-2.8
14) CCCUAGCAAUAUUACGUUUG
-2.79
15) UCCUAGCAAUAUUACGCUGC
-2.02
16) CAUAAGCAAUAUUACGAUUC
-3.11

====

# protocol description: self-splicing fitness, log relative to wild type (ln ratio); higher = more splicing; Tetrahymena group I intron in knt gene, E. coli kanamycin selection, DiMSum; sequences stand for … in CUCUCU…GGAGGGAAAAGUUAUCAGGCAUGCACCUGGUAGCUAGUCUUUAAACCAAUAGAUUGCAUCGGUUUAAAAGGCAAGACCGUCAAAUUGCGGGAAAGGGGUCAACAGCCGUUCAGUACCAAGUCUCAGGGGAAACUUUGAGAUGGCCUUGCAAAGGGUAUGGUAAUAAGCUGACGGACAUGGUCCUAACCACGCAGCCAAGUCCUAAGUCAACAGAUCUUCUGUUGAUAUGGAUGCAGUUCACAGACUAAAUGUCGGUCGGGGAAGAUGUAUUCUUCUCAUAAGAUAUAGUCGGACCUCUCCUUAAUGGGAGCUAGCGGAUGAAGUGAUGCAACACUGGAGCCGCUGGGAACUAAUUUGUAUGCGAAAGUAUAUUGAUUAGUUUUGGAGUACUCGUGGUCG
# condition summary: 30 °C
measured property: self-splicing fitness (ln)

1) ACGUAGCAAUAUUACGUGGA
-3.46
2) UAGAAGCAAUAUUACGAUCG
0.151
3) CCCUAGCAAUAUUACGAUGC
-3.12
4) UGCUAGCAAUAUUACGCGAG
-4.4
5) UAAAAGCAAUAUUACGCUAU
-2.11
6) UGGCAGCAAUAUUACGUUGU
-3.71
7) AAAGAGCAAUAUUACGAUGC
-2.54
8) UCGGAGCAAUAUUACGUUGG
-2.09
9) AAUCAGCAAUAUUACGGAGG
-1.01
10) AACCAGCAAUAUUACGGAAA
-1.73
11) CCAGAGCAAUAUUACGGUAC
-3.29
12) CGUGAGCAAUAUUACGAUCA
-2.06
13) GUGCAGCAAUAUUACGUAGA
-2.02
14) GAAAAGCAAUAUUACGAUUG
-2.27
15) GCUCAGCAAUAUUACGUCGU
-0.158
16) CGUGAGCAAUAUUACGUAAC
-3.13
17) UUAUAGCAAUAUUACGGAAA
-2.13
18) AUCUAGCAAUAUUACGCUAU
-3.15
19) GGUUAGCAAUAUUACGACAG
-1.69
20) AGUAAGCAAUAUUACGGCUC
-2.15
21) AGUCAGCAAUAUUACGGGAA
-2.12
22) UCAAAGCAAUAUUACGUAUC
-3.73
23) GGAGAGCAAUAUUACGUCCA
-2.78
24) UGCAAGCAAUAUUACGUCAA
-2.14
25) UGUCAGCAAUAUUACGAUUG
-0.341
26) AGUGAGCAAUAUUACGGCAC
-1.29
27) CUCUAGCAAUAUUACGCUAC
-3.65
28) UCGAAGCAAUAUUACGCCUU
-3.4
29) ACAGAGCAAUAUUACGCUUG
-1.62
30) AUUGAGCAAUAUUACGCCGC
-2.67
31) GGCUAGCAAUAUUACGAGAG
-2.09
32) GCGCAGCAAUAUUACGGGAU
-1.66
33) AAAUAGCAAUAUUACGACUG
-0.98
34) AUUUAGCAAUAUUACGUCUU
-0.374

====

# protocol description: self-splicing fitness, log relative to wild type (ln ratio); higher = more splicing; Tetrahymena group I intron in knt gene, E. coli kanamycin selection, DiMSum; sequences stand for … in CUCUCU…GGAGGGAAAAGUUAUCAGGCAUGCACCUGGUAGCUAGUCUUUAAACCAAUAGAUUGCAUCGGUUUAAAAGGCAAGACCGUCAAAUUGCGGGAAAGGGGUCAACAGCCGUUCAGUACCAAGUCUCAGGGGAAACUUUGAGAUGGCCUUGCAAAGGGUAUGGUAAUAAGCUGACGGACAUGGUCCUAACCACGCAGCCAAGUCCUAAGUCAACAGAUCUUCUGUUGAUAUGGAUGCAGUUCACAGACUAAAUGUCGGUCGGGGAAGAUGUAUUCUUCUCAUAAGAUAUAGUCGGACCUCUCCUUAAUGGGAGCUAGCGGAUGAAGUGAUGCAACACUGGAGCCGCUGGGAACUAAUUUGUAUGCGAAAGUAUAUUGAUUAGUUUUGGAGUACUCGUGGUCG
# condition summary: 30 °C
So basically, the class depends on measured self-splicing fitness (ln), and the ranges are c1 (below -3), c2 (-3 to below -2), c3 (-2 or more)

1) GAGCAGCAAUAUUACGGACG
c2
2) GGUAAGCAAUAUUACGCCCC
c1
3) AUUUAGCAAUAUUACGCGGA
c3
4) UCCGAGCAAUAUUACGUUAC
c1
5) GAUGAGCAAUAUUACGUCUA
c3
6) UCUAAGCAAUAUUACGCUUA
c2
7) UAGUAGCAAUAUUACGUGAG
c3
8) AGCAAGCAAUAUUACGCUUU
c2
9) CAAGAGCAAUAUUACGUAAA
c1
10) GACCAGCAAUAUUACGGGUC
c1
11) AGCUAGCAAUAUUACGAACA
c2
12) UCAAAGCAAUAUUACGUGGG
c2
13) ACCAAGCAAUAUUACGAGCU
c3
14) UCGCAGCAAUAUUACGUUGG
c2

The reported numbers originate from the supplement of paper PMC7877785.
